- MEASURED TARGET: hMPV A1 F trimer (heated) (human metapneumovirus)
- TEST NAME: ELISA on coated recombinant protein, OD 405 nm
ASSAY READOUT: EC50

Input line: Item under review: MPV491 (antibody, V domains shown) VH: QVQLQESGPGLVKSSQTLSLTCTVSGGSISSVTSHWTWIRQHPGKGLEWIGYIFSSGTTYYSPSLRSRLTMSVDTSKNQFSLQLSSVTAADTAMYYCARGIYCGDSCYKGTDYWGRGTLVTVSS VL: IRLMTQTPVTLPVTPGEPASISCRSSQSLLHSNGYNYLDWYLQKPGQSPQLLIYRGSTRASGVPDRFSGSGSGTEFTLKISRVEAEDVGVYYCMQGLQTPYTFGQGTKLESR . Reported EC50?
Output line: 1.1 µg/mL

Input line: Item under review: MPV481 (antibody, V domains shown) VH: EVQLVQSGGGLVKPGGSLRLSCAASGLPFNNAWMNWVRQAPGKGLEWVGRIKSKIDGGTTEYAAPVKGRFTISRDDSENTLYLQMNSLRTEDTAVYYCTTEYYALLSGNYSDCWGQGTLVTVSS VL: DIVMTQSPFSLSLSPGERATLSCRASQSIKRAYLGWYQQKPGQAPRLLIYGASNRATGIPDRFSGSGSGTDFTLTISRLEPEDFAVYYCQQYGDSPGGSFGQGTKLEIR . Reported EC50?
Output line: 0.28 µg/mL

Input line: Item under review: MPV483 (antibody, V domains shown) VH: EVQLVQSGAELKKPGSSVKVSCKASGDTFSNYAISWVRQAPGQGLEWMGGIIPIYNTANYAQKFQGRVTLTADESTSTAYMELSSLRSEDTAVYYCARDVRNNWSVLRGARYYYYGMDVWGQGTTVTVSS VL: DIVMTQTPFSLSASVGDRVTVTCRASQDISNSLAWFQQKPGKAPKSLIYAASSLQSGVPTRFSGGGSGTDFTLTISSLQPEDFATFYCLQYDSFPPTFGGGTKVEI . Reported EC50?
Output line: 0.27 µg/mL
